- system-under-test: DLG1_3, Q12959
- Sequence (Q12959 457-571): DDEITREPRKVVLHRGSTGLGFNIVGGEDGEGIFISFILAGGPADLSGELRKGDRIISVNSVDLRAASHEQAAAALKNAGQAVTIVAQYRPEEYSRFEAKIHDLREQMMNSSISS
- experiment-notes: holdup assay
- Parameters: key: below the threshold = too weak to quantify, mostly under pKd 3.1 to 4
- test-conditions: plain residues with an end cap or a label only (N-terminal biotin on a linker: ttds)
test-readout: pKd

IYVPEAQTRL [DLGAP4, Q9Y2H0]	below the threshold
PKTPPTDTSV [KIR3DL3, Q8N743]	below the threshold
ERKLSSESQV [LRP4, O75096]	below the threshold

Where do these numbers come from? They come from paper PMC9482650.
